Assignment: determine reported IC50 for the given compounds.
- assay_protocol: Cytotoxicity against human HCEC cells
- Assay type: toxicity, cell-based

compound	measured
C[C@@H]1CC[C@H]2[C@@H](C)C(=O)O[C@@H]3O[C@@]4(C)CC[C@@H]1[C@]32OO4 [ARTEMISININ]	> 50 µM
C[C@H]1[C@H](Sc2ccccc2)O[C@@H]2O[C@@]3(C)CC[C@H]4[C@H](C)CC[C@@H]1[C@@]24OO3	0.93 µM
O=c1[nH]cc(F)c(=O)[nH]1 [FLUOROURACIL]	> 100 µM

Asked: Please supply the value of reported IC50 for the item C[C@H]1[C@@H](Sc2ccccc2)O[C@@H]2O[C@@]3(C)CC[C@H]4[C@H](C)CC[C@@H]1[C@@]24OO3
Given back: 5.24 µM

###

- Test system: MDA-MB-231
- assay_protocol: Antiproliferative activity against human MDA-MB-231 cells assessed as reduction in cell viability
- Type: functional, cell-based
Answer each item with its documented IC50.
Answers are plain numbers, in µM.

Cc1c(C)c2ccc(OCCCn3cc(CO[C@H]4O[C@@H]5O[C@@]6(C)CC[C@H]7[C@H](C)CC[C@@H]([C@H]4C)[C@@]57OO6)nn3)cc2oc1=O 0.43
Cc1c(C)c2ccc(OCCn3cc(CO[C@H]4O[C@@H]5O[C@@]6(C)CC[C@H]7[C@H](C)CC[C@@H]([C@H]4C)[C@@]57OO6)nn3)cc2oc1=O 0.43

Asked: Query IC50 for C[C@H]1[C@@H](OCc2cn(CCCOc3ccc4c(C(F)(F)F)cc(=O)oc4c3)nn2)O[C@@H]2O[C@@]3(C)CC[C@H]4[C@H](C)CC[C@@H]1[C@@]24OO3
Given back: 0.43

###

- System: HepG2
- assay_protocol: Antiproliferative activity against human HepG2 cells assessed as reduction in cell viability
- Format: functional, cell-based
- condition_set: Homo sapiens, HepG2
endpoint_label: pIC50
Give bare numbers, as −log10 of the molar value.

Asked: Retrieve pIC50 on HepG2; query CCN(CC)c1ccc2cc(C(=O)N3CCN(CCC[C@H]4O[C@@H]5O[C@@]6(C)CC[C@H]7[C@H](C)CC[C@@H]([C@H]4C)[C@@]57OO6)CC3)c(=O)oc2c1
Given back: 5.63

###

Please respond with reported pIC50 for every item in the list.
- System: OVCAR-3
- assay_protocol: Antiproliferative activity against human OVCAR-3 cells assessed as reduction in cell viability
- Assay type: functional, cell-based
One number for each entry, as −log10 of the molar value.

Please review the entries below; each comes with its answer.
CCN(CC)c1ccc2cc(C(=O)N3CCN(C(=O)CN4CCN(CCC[C@H]5O[C@@H]6O[C@@]7(C)CC[C@H]8[C@H](C)CC[C@@H]([C@H]5C)[C@@]68OO7)CC4)CC3)c(=O)oc2c1 5.63
CCN(CC)c1ccc2cc(C(=O)N3CCN(CCC[C@H]4O[C@@H]5O[C@@]6(C)CC[C@H]7[C@H](C)CC[C@@H]([C@H]4C)[C@@]57OO6)CC3)c(=O)oc2c1 5.63

For the next question, use this compound.
Asked: Supply reported pIC50 belonging to this compound: CCN(CC)c1ccc2cc(C(=O)NCCNC(=O)CN3CCN(CCC[C@H]4O[C@@H]5O[C@@]6(C)CC[C@H]7[C@H](C)CC[C@@H]([C@H]4C)[C@@]57OO6)CC3)c(=O)oc2c1
Given back: 5.63

###

- Tested on: PC-3
- assay_protocol: Antiproliferative activity against human PC-3 cells assessed as reduction in cell viability measured for 24 hrs
- Type: functional, cell-based
- condition_set: PC-3, 24 h
endpoint_label: pIC50
Give bare numbers, as −log10 of the molar value.

COc1ccc(Sc2cccc(C(=O)O[C@@H]3O[C@@H]4O[C@@]5(C)CC[C@H]6[C@H](C)[C@H](OC(=O)c7cccc(Sc8ccc(OC)cc8)c7)C[C@@H]([C@H]3C)[C@@]46OO5)c2)cc1 5.80
O=c1[nH]cc(F)c(=O)[nH]1 5.17

Asked: For the molecule COc1ccc(Sc2cccc(C(=O)O[C@@H]3O[C@@H]4O[C@@]5(C)CC[C@H]6[C@H](C)[C@H](O)C[C@@H]([C@H]3C)[C@@]46OO5)c2)cc1 , give its reported pIC50.
Given back: 5.37

###

- System: MDA-MB-231
- assay_protocol: Antiproliferative activity against human MDA-MB-231 cells
- Type: functional, cell-based
- condition_set: Homo sapiens, MDA-MB-231
Labelling field: enter MET if recorded IC50 is less than 1000 nM. Enter NOT MET if it equals or exceeds that cut-off.

molecule	assigned_class
C[C@H]1[C@@H](OCCn2cc(COc3ccc(C=O)c(O)c3)nn2)O[C@@H]2O[C@@]3(C)CC[C@H]4[C@H](C)CC[C@@H]1[C@@]24OO3	NOT MET
C[C@H]1[C@@H](OCc2cn(-c3ccc(C#N)cc3)nn2)O[C@@H]2O[C@]3(C)OO[C@]24[C@H]1CC[C@@H](C)[C@@H]4C[C@H]3O	NOT MET

Asked: Strictly below 1000 nM: is that where IC50 of C[C@H]1[C@H](OCCOc2cccc(/C=C/S(=O)(=O)Nc3c(Cl)cccc3Cl)c2)O[C@@H]2O[C@@]3(C)CC[C@H]4[C@H](C)CC[C@@H]1[C@@]24OO3 sits?
Given back: MET

Asked: # strict comparison: is reported IC50 < 1000 nM? input = COc1cccc2c1C(=O)c1c(O)c3c(c(O)c1C2=O)C[C@@](O)(C(=O)CO)C[C@@H]3O[C@H]1C[C@H](N)[C@H](O)[C@H](C)O1
Given back: NOT MET

Asked: Is IC50 strictly under 1000 nM for the entry Cc1ccc(F)c(NS(=O)(=O)/C=C/c2cccc(OCCOC3O[C@@H]4O[C@@]5(C)CC[C@H]6[C@H](C)CC[C@@H]([C@H]3C)[C@@]46OO5)c2)c1 (stereo partly specified) ?
Given back: MET

Asked: Input C[C@H]1[C@H](OCCNC(=O)c2ccc(COc3ccc(/C=C/S(=O)(=O)Nc4ccc(Cl)cc4)cc3)cc2)O[C@@H]2O[C@@]3(C)CC[C@H]4[C@H](C)CC[C@@H]1[C@@]24OO3 ; condition: IC50 strictly below 1000 nM. Does it hold?
Given back: MET

Asked: Is it true that IC50 reported for C[C@H]1[C@H](OCCNC(=O)c2ccc(COc3ccc(/C=C/S(=O)(=O)Nc4ccc(OC(F)(F)F)cc4)cc3)cc2)O[C@@H]2O[C@@]3(C)CC[C@H]4[C@H](C)CC[C@@H]1[C@@]24OO3 is less than 1000 nM?
Given back: MET

Asked: In plain terms, does Cc1ccccc1NS(=O)(=O)/C=C/c1ccc(OCc2ccc(C(=O)NCCO[C@@H]3O[C@@H]4O[C@@]5(C)CC[C@H]6[C@H](C)CC[C@@H]([C@H]3C)[C@@]46OO5)cc2)cc1 come in under 1000 nM for IC50?
Given back: MET

Asked: Answer whether the molecule C[C@H]1[C@@H](OCCn2cc(COc3cccc(O)c3)nn2)O[C@@H]2O[C@@]3(C)CC[C@H]4[C@H](C)CC[C@@H]1[C@@]24OO3 has IC50 strictly less than 1000 nM
Given back: NOT MET

Asked: Lab note: IC50 threshold 1000 nM. Does this molecule come in strictly under it? C[C@@H]1CC[C@H]2[C@@H](C)C(OCCOc3cccc(/C=C/S(=O)(=O)Nc4ccc(Cl)cc4)c3)O[C@@H]3O[C@@]4(C)CC[C@@H]1[C@]32OO4 (single isomer, unassigned)
Given back: MET

Asked: # TODO verify IC50 < 1000 nM strictly for this molecule: Cc1ccccc1NS(=O)(=O)/C=C/c1cccc(OCCO[C@@H]2O[C@@H]3O[C@@]4(C)CC[C@H]5[C@H](C)CC[C@@H]([C@H]2C)[C@@]35OO4)c1
Given back: MET

###

- Tested on: SMMC-7721
- assay_protocol: Antiproliferative activity against human SMMC-7721 cells
- Assay type: functional, cell-based
endpoint_label: IC50

compound	IC50
C[C@H]1[C@@H](O)O[C@@H]2O[C@@]3(C)CC[C@H]4[C@H](C)CC[C@@H]1[C@@]24OO3 [ARTENIMOL]	400 nM

Required: IC50, one value per compound below.
1. C[C@H]1[C@H](N2CCS(=O)(=O)[C@H](CCCCCCOC(=O)c3ccc([N+](=O)[O-])cc3C(=O)O)C2)O[C@@H]2O[C@@]3(C)CC[C@H]4[C@H](C)CC[C@@H]1[C@@]24OO3
2. C[C@@H]1CC[C@H]2[C@@H](C)C(=O)O[C@@H]3O[C@@]4(C)CC[C@@H]1[C@]32OO4 [ARTEMISININ]

Given back:
1. 60 nM
2. 440 nM

###

- System: A549
- assay_protocol: Antiproliferative activity against human A549 cells assessed as reduction in cell viability measured for 24 hrs
- Format: functional, cell-based
- condition_set: A549, 24 h
endpoint_label: IC50 (µM)
Give bare numbers, in µM.

Here is how some compounds turned out for IC50.
compound	endpoint_label	measured
COc1ccc(Sc2cccc(C(=O)O[C@@H]3O[C@@H]4O[C@@]5(C)CC[C@H]6[C@H](C)[C@H](OC(=O)c7cccc(Sc8ccc(OC)cc8)c7)C[C@@H]([C@H]3C)[C@@]46OO5)c2)cc1	IC50	1.6
COc1ccc(Sc2cccc(C(=O)O[C@@H]3O[C@@H]4O[C@@]5(C)CC[C@H]6[C@H](C)[C@H](O)C[C@@H]([C@H]3C)[C@@]46OO5)c2)cc1	IC50	4.3

In the following, a different compound is considered.
Asked: Report value only: IC50, A549, O=c1[nH]cc(F)c(=O)[nH]1 [FLUOROURACIL]
Given back: 6.8
